- Protocol: NCI Yeast Anticancer Drug Screen. Data for the rad50EPP+ strain (AID 151);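 further: 0% = growth of vehicle-treated control cultures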
- Measurement conditions: S. cerevisiae rad50 mutant strain, at 100.0 µM, stronger effect = higher value
About 79,000 compounds went through this panel and 15% of them were active in at least one assay; those are over-represented in the sample as a whole.
Property: growth inhibition (%)
Answers are plain numbers, in %.

# example entries with known answers
> print(dat)
                                   molecule  value.reported
1                       OCc1ccccc1Cc1ccccc1              30
2                   COc1ccc(N=CN(C)C)c(C)c1              71
3  Nc1ccn(C2OC(COP(=O)(O)O)C(O)C2O)c(=O)n1 (stereo not given)              72
4  O=C(CC(=O)n1nc(-c2ccccc2)c(N=Nc2ccc(Cl)cc2)c1-c1ccccc1)Nc1cccc(Cl)c1              29
5  CNC(=O)OCc1c(COC(=O)NC)c(-c2ccc(Cl)cc2)n2c1CCC2             -26

Please supply growth inhibition for each of the following items, keeping them in order.
1. Cc1cc(C)c(NC(=S)NC(=O)c2ccccc2)cc1C
2. N#CNC(N)=Nc1cc2ccccc2c2ccccc12
3. CCOc1ccc(NC(=O)C2=C(C)NC(C)=C(C(=O)Nc3ccc(OCC)cc3)C2c2cccc([N+](=O)[O-])c2)cc1

Result:
1: -5; 2: 79; 3: -4

Field: growth inhibition. Fill in for each record below.
1. Cc1ccc(NC(c2ccccc2)c2ccc3cccnc3c2O)cc1 (stereo not given)
2. O=[N+]([O-])c1cc(Cl)cnc1Br
3. COc1cc(/C=C2\NC(=O)N(/C=C3\C(=O)Oc4ccccc4C3=O)C2=O)ccc1O
4. O=[N+]([O-])/C=C/c1cc(Cl)c(/C=C/[N+](=O)[O-])cc1Cl
5. COC(=O)C1=C(C(=O)OC)C(C(=O)OC)C(C(=O)OC)C(C(=O)OC)(C(=O)OC)C(C(=O)OC)=C1C(=O)OC (stereo not given)
6. O=C(O)Cc1cc(F)ccc1C(=O)O

Result:
1. -2
2. 98
3. 3
4. 70
5. 27
6. -15

Count: 7. Required value per item: growth inhibition.
1. CCCCCCN(CCCCCC)CC(O)c1ccnc2ccc(OC)cc12 (stereo not given)
2. CC(C)c1ccc(NC(=S)NC(=O)c2ccccc2)cc1
3. CCc1cc(O)c(Cl)c(C)c1Cl
4. O=c1nc2n(Cc3ccccc3)c3ccccc3nc-2c(=O)[nH]1
5. N/C(=N/N=C/c1cc(Br)cc(Br)c1O)NO
6. Cc1c2cccc(Sc3ccccc3)c2c2c3c(cccc13)[S+](c1ccccc1)C2 (stereo not given)
7. Cc1cc(N(CCOS(C)(=O)=O)CCOS(C)(=O)=O)ccc1C=Nc1ccc(-c2csc(-c3ccccc3)n2)c(Cl)c1

Result:
1: -8; 2: 58; 3: 90; 4: 97; 5: 73; 6: 88; 7: 85

// for each molecule below, give its growth inhibition
1. O=C(/C=C\c1cccc(C(F)(F)F)c1)c1ccccc1
2. CC(C)(C)N=C(NO)c1ccccc1
3. CNC(=O)OCc1c(COC(=O)NC)c2n(c1C)-c1ccc(OC)cc1CCC2
4. O=C(NCCCNCCN1C(=O)c2cccc3cc([N+](=O)[O-])cc(c23)C1=O)c1cc(-c2ccccc2)nc2ccccc12

Result:
[9, 63, 15, 57]
